Origin of the recorded values: patent US10980238B2

- Tested on: bees
- measurementParameters: Li-salt 25 mM in sucrose syrup, days 1-7; 50 bees per cage; mean of three replicates
metricName: Number of dead bees, Sum
Reply with just the number.

Data request: I would be grateful if you could share the reported Number of dead bees, Sum for O=C([O-])CC(O)(CC(=O)[O-])C(=O)[O-].[Li+].[Li+].[Li+] [Li-citrate, lithium citrate] .
Data returned: 3.0

Data request: I would be grateful if you could share the reported Number of dead bees, Sum for O=S(=O)([O-])[O-].[Li+].[Li+] [Li-sulfate, lithium sulfate] .
Data returned: 6.3

Data request: I would be grateful if you could share the reported Number of dead bees, Sum for CC(O)C(=O)[O-].[Li+] (stereo not shown) [Li-lactate, lithium lactate] .
Data returned: 5.0

Data request: I would be grateful if you could share the reported Number of dead bees, Sum for O=C([O-])[O-].[Li+].[Li+] [Li-carbonate, lithium carbonate] .
Data returned: 1.7
